Provide the recorded % Gated in M1 for the entries that follow.
- MEASURED_ON: T1, mouse PD-L1 on mPD-L1/CHO-K1 overexpressing cells (mouse, UniProt Q9EP73 19-290)
- T1 construct: whole, on cells; also called mouse PD-L1-expressing cells
- PROTOCOL_DETAILS: flow cytometry on mPD-L1/CHO-K1 cells (sheet label mPD-1/CHO-K1)

- BINDER: "ME4.A2 anti-PD-L1 antibody (IgG form) (antibody, V domains shown) VH: QVQLVESGAEVKKPGSSVKVSCKASGGTFNNYAVSWVRQAPGQGLEWMGRIIPILGIANYAQTFQGRVTITADKSTTTAYMELSSLRSEDTAVYYCARSSRGYAHGAFDIWGQGTMVTVSS VL: QFVLTQPPSVSGAPGQRVTISCTGSSSNIGAGYDVHWYQQLPGTAPKVLIYGNSDRPSGVPDRFSGSKSGTSASLAITGLQGEDKATYYCQSYDSRLSGPVFGTGTKVTVLG"
  % Gated in M1: "51%"
- BINDER: "ME4.B10 anti-PD-L1 antibody (IgG form) (antibody, V domains shown) VH: QVQLVESGAEVKKPGSSVKVSCKASGGTFNNYAVSWVRQAPGQGLEWMGRIIPILGIANYAQTFQGRVTITADKSTTTAYMELSSLRSEDTAVYYCARSARGYAHGAFDIWGQGTMVTVSS VL: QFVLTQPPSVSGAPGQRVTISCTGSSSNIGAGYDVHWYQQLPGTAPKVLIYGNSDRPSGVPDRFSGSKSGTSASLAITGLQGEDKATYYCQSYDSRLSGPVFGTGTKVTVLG"
  % Gated in M1: "18.1%"

Field: next binder
Query string: Request the reported % Gated in M1 associated with ME4.A11 anti-PD-L1 antibody (IgG form) (antibody, V domains shown) VH: QVQLVESGAEVKKPGSSVKVSCKASGGTFNNYAVSWVRQAPGQGLEWMGRIIPILGIANYAQTFQGRVTITADKSTTTAYMELSSLRSEDTAVYYCARSRGGYAHGAFDIWGQGTMVTVSS VL: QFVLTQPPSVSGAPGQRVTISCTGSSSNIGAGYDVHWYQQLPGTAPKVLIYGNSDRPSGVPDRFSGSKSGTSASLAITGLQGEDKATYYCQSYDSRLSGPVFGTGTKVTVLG
Result string: 9.44%
